Reported NADPH fluorescence slope values for the following compounds.
Target: Voltage-gated potassium channel subunit beta-2 (Rattus norvegicus) (UniProt P62483)
Sequence (P62483 whole entry, looked up): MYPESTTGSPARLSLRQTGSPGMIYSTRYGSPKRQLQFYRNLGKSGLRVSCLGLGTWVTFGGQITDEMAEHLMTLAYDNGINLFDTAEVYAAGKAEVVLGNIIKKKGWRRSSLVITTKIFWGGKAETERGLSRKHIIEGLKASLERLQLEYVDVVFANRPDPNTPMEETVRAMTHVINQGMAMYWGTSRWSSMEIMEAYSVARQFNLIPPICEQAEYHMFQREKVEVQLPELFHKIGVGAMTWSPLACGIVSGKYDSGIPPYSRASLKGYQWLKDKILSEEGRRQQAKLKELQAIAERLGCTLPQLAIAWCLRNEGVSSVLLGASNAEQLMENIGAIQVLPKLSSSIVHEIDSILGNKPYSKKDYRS
Experiment: enhancers of rat Kvbeta2 NADPH turnover – biochemical, NADPH fluorescence, primary screen (AID 623);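 further: fluorescence intensity change per second fitted from 20 to 320 s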
Settings: Recombinant KvBeta, NADPH fluorescence decrease slope, 10 min; at 10 µM; hits give low values
Measured Endpoint: NADPH fluorescence slope

>>> df
                                    compound                          target_or_system         measured_endpoint  experimental_value
 0  COc1ccc(N2C(=O)C3C4C=CC(C4)C3C2=O)nn1 (stereo unspecified)  Voltage-gated potassium channel subunit beta-2 (Rattus norvegicus) (UniProt P62483)  NADPH fluorescence slope           -0.000108
 1  CCCc1cc(-c2n[nH]c(C)c2-c2ccc(C(=O)OCC)o2)c(O)cc1O  Voltage-gated potassium channel subunit beta-2 (Rattus norvegicus) (UniProt P62483)  NADPH fluorescence slope              -2e-05
 2  CC(=O)c1ccc(N2CCN(C(=O)c3cc(C)on3)CC2)cc1  Voltage-gated potassium channel subunit beta-2 (Rattus norvegicus) (UniProt P62483)  NADPH fluorescence slope            -4.5e-05
 3  O=C(CCC(=O)N(c1cccc(F)c1)C(C(=O)NC1CCCC1)c1ccncc1)Nc1cccnc1 (stereo unspecified)  Voltage-gated potassium channel subunit beta-2 (Rattus norvegicus) (UniProt P62483)  NADPH fluorescence slope            -3.7e-05
 4  Cc1ccc(S(=O)(=O)CCc2nnc(NC(=O)c3cnccn3)s2)cc1  Voltage-gated potassium channel subunit beta-2 (Rattus norvegicus) (UniProt P62483)  NADPH fluorescence slope            -8.1e-06
 5  Cc1cc(C)c2c(n1)nn1c(NCCCN3CCOCC3)cc(C)nc21  Voltage-gated potassium channel subunit beta-2 (Rattus norvegicus) (UniProt P62483)  NADPH fluorescence slope            -1.9e-05
 6            c1ccc(CCc2nc(-c3cccnc3)no2)cc1  Voltage-gated potassium channel subunit beta-2 (Rattus norvegicus) (UniProt P62483)  NADPH fluorescence slope             1.1e-05
 7  CCC(C)NC(=O)CCNS(=O)(=O)c1ccc(Br)cc1 (stereo unspecified)  Voltage-gated potassium channel subunit beta-2 (Rattus norvegicus) (UniProt P62483)  NADPH fluorescence slope             6.7e-06
 8     O=C(c1ccc2ccccc2n1)N1CCN(c2ccccc2)CC1  Voltage-gated potassium channel subunit beta-2 (Rattus norvegicus) (UniProt P62483)  NADPH fluorescence slope             9.7e-06
 9  CCOc1ccccc1-c1nc(-c2ccc(NC(=O)Cc3ccccc3OC)cc2)no1  Voltage-gated potassium channel subunit beta-2 (Rattus norvegicus) (UniProt P62483)  NADPH fluorescence slope            -3.1e-05
10  O=C(Nc1cccc(F)c1)c1cccc(S(=O)(=O)N2CCOCC2)c1  Voltage-gated potassium channel subunit beta-2 (Rattus norvegicus) (UniProt P62483)  NADPH fluorescence slope            -5.2e-05
